Consider the following ΔG values measured on triplatin (Triatoma infestans).
Kindly provide the numeric value in kcal/mol only, without the unit symbol.

Solved entries:
compound "CCCCC[C@H](O)/C=C/[C@H]1C(=O)C=C[C@@H]1C/C=C\CCCC(=O)O" , ΔG observed: -9.65

compound CCCCC[C@H](O)/C=C/[C@H]1OC(O)C[C@H](O)[C@@H]1C/C=C\CCCC(=O)O (stereo partly shown) , ΔG observed: -8.95

compound "CCCCC[C@H](O)/C=C/[C@@H]1[C@@H](C/C=C\CCCC(=O)O)[C@H]2CO[C@@H]1C2" , ΔG observed: -9.06

Okay, next one:
compound "CCCCC[C@H](O)/C=C/[C@H]1CC2CC(C2)[C@@H]1C/C=C\CCCC(=O)O" , ΔG observed: -8.93

---

Consider the following ΔH values measured on triplatin (Triatoma infestans, UniProt Q18NS7).
Sequence (Q18NS7 19-182 limits assumed): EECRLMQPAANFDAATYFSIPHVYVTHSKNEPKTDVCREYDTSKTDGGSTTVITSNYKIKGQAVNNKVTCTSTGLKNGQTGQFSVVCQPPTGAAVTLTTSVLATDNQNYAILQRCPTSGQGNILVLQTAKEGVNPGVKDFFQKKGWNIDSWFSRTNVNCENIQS
Hi, when you answer, please include the unit after the number. Thanks!

Solved entries:
molecule CCCCC[C@H](O)/C=C/[C@H]1OC(O)C[C@H](O)[C@@H]1C/C=C\CCCC(=O)O (stereo partly shown) , ΔH observed: -11.53 ± 0.92 kcal/mol

molecule "CCCCC[C@H](O)/C=C/[C@H]1C(=O)C=C[C@@H]1C/C=C\CCCC(=O)O" , ΔH observed: -11.14 ± 0.38 kcal/mol

Further cases:
molecule "CCCCC[C@H](O)/C=C/[C@H]1CC2CC(C2)[C@@H]1C/C=C\CCCC(=O)O" , ΔH observed: -12.83 ± 0.73 kcal/mol

molecule "CCCCC[C@H](O)/C=C/[C@@H]1[C@@H](C/C=C\CCCC(=O)O)[C@H]2CO[C@@H]1C2" , ΔH observed: -11.52 ± 0.38 kcal/mol

---

system.under.test: triplatin (Triatoma infestans, UniProt Q18NS7)
Form field: TΔS (one value per entry).
Hi, when you answer, please include the unit after the number. Thanks!

Solved entries:
Kindly note: triplatin (Triatoma infestans, UniProt Q18NS7), CCCCC[C@H](O)/C=C/[C@H]1OC(O)C[C@H](O)[C@@H]1C/C=C\CCCC(=O)O (stereo partly shown) , TΔS value reported: -2.58 kcal/mol

Kindly note: triplatin (Triatoma infestans, UniProt Q18NS7), "CCCCC[C@H](O)/C=C/[C@H]1CC2CC(C2)[C@@H]1C/C=C\CCCC(=O)O" , TΔS value reported: -3.90 kcal/mol

Kindly note: triplatin (Triatoma infestans, UniProt Q18NS7), "CCCCC[C@H](O)/C=C/[C@H]1C(=O)C=C[C@@H]1C/C=C\CCCC(=O)O" , TΔS value reported: -1.49 kcal/mol

Further cases:
Kindly note: triplatin (Triatoma infestans, UniProt Q18NS7), "CCCCC[C@H](O)/C=C/[C@@H]1[C@@H](C/C=C\CCCC(=O)O)[C@H]2CO[C@@H]1C2" , TΔS value reported: -2.46 kcal/mol
